All figures here come from patent US5696276A.

tested on: A549 cancer cells; assay: Cytotoxic activity against A549 cancer cells (sulforhodamin B method); assay type: cell-based; conditions: Homo sapiens; A549 cells, SRB method, 48 hours; read-out: ED50, cytotoxic activity against A549
readout-kind: IC50 (µg/mL)
# value in µg/mL; strip the unit string

// known answers, use as guide
CCCCCCCCCCCCOC(CCC(C)C)C1=CC(=O)c2c(OC)ccc(OC)c2C1=O (centres unmarked) | 4.8
CCCCCC(=O)OC(CCC(C)C)C1=CC(=O)c2c(O)ccc(O)c2C1=O (centres unmarked) | 0.4
C=CCC/C=C/C(=O)OC(CC=C(C)C)C1=CC(=O)c2c(O)ccc(O)c2C1=O (centres unmarked) | 3.8

Q: What value of IC50 on A549 cancer cells does CCCCCCCCCC(O)C1=CC(=O)c2c(O)ccc(O)c2C1=O (centres unmarked) have?
A: 0.5

Q: What value of IC50 on A549 cancer cells does CC(C)=CCC(OC(=O)c1ccccc1)C1=CC(=O)c2c(O)ccc(O)c2C1=O (centres unmarked) have?
A: 2.1

Q: What value of IC50 on A549 cancer cells does CC/C=C/CC(=O)OC(CCCCC)C1=CC(=O)c2c(O)ccc(O)c2C1=O (centres unmarked) have?
A: 1.5

Q: What value of IC50 on A549 cancer cells does CCCC(=O)OC(CC=C(C)C)C1=CC(=O)c2c(O)ccc(O)c2C1=O (centres unmarked) have?
A: 2.5

Q: What value of IC50 on A549 cancer cells does CCCCCCCOC(CCC(C)C)C1=CC(=O)c2c(OC)ccc(OC)c2C1=O (centres unmarked) have?
A: 4.7

Q: What value of IC50 on A549 cancer cells does CC(C)=CCC(OC(=O)C(c1ccccc1)c1ccccc1)C1=CC(=O)c2c(O)ccc(O)c2C1=O (centres unmarked) have?
A: 6.3

Q: What value of IC50 on A549 cancer cells does CCCCCCCC(=O)OC(CCCCC)C1=CC(=O)c2c(O)ccc(O)c2C1=O (centres unmarked) have?
A: 2.1

Q: What value of IC50 on A549 cancer cells does C=CCCCCC(=O)OC(CC=C(C)C)C1=CC(=O)c2c(O)ccc(O)c2C1=O (centres unmarked) have?
A: 4.2
